Reported IC50 values for a set of molecules
Biological target: Aurora A kinase (Homo sapiens)
Construct: purchased Upstate Biotech
Sequence (O14965 1-403): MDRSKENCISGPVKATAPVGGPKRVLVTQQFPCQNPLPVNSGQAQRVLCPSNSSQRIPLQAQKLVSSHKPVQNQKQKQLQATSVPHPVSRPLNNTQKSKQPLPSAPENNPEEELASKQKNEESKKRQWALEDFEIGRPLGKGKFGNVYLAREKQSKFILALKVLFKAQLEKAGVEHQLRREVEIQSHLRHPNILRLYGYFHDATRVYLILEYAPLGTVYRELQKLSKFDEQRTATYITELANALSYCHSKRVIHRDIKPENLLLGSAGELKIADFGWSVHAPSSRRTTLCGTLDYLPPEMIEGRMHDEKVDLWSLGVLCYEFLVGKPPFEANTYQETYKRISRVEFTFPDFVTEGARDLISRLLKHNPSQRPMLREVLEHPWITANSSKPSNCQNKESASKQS
Test: Aurora A kinase assay (IMAP fluorescence polarization)
Assay type: biochemical
Settings: 10 μM ATP; rounded to 1 significant figure; read-out: Aur-A IC50
Reported endpoint: IC50 (nM)

molecule="COc1ccnc(/C(C(N)=O)=C2/Nc3ccc(CN4CCOCC4)cc3S2)n1 [Compound 92A]" reported_endpoint=IC50 result=70
molecule="CN1CCN(Cc2ccc3c(c2)S/C(=C(/C(N)=O)c2nccc(C(F)(F)F)n2)N3)CC1 [Compound 93A]" reported_endpoint=IC50 result=20
molecule="NC(=O)/C(=C1\\Nc2ccccc2S1)c1nc(N)cc(C(F)(F)F)n1 [Compound 13A]" reported_endpoint=IC50 result=10
molecule="NC(=O)/C(=C1\\Nc2ccc(NC(=O)[C@H]3CCCN3)cc2N1)c1nccc(C(F)(F)F)n1 [Compound 79A]" reported_endpoint=IC50 result=20
molecule="CN(C)CC(=O)Nc1ccc2c(c1)S/C(=C(/C(N)=O)c1nccc(C(F)(F)F)n1)N2 [Compound 74A]" reported_endpoint=IC50 result=20
molecule="CN1CCN(C(=O)c2cnc(C(C(N)=O)=C3Nc4ccccc4S3)nc2C(F)(F)F)CC1 (single isomer, unassigned) [Compound 130A]" reported_endpoint=IC50 result=100
molecule="NC(=O)/C(=C1\\Nc2cc(NC(=O)Cn3ccnc3)ccc2S1)c1nccc(C(F)(F)F)n1 [Compound 88A]" reported_endpoint=IC50 result=4
molecule="NC(=O)/C(=C1\\Nc2ccc(NCCN3CCOCC3)cc2S1)c1nccc(C(F)(F)F)n1 [Compound 124A]" reported_endpoint=IC50 result=30
molecule="CN1CCN(c2ccc3c(c2)N/C(=C(/C(N)=O)c2nccc(C(F)(F)F)n2)N3)CC1 [Compound 119A]" reported_endpoint=IC50 result=9
molecule="Cn1ccnc1CCc1ccc2c(c1)S/C(=C(/C(N)=O)c1nccc(C(F)(F)F)n1)N2 [Compound 97A]" reported_endpoint=IC50 result=20
molecule="Cc1ccnc(C(C(N)=O)=C2Nc3ccccc3N2)n1 [Compound 19A]" reported_endpoint=IC50 result=400
molecule="NC(=O)/C(=C1\\Nc2ccc(OCCCN3CCOCC3)cc2S1)c1nccc(C(F)(F)F)n1 [Compound 113A]" reported_endpoint=IC50 result=30
molecule="NC(=O)/C(=C1/Nc2cc(F)cc(F)c2N1)c1nccc(C(F)(F)F)n1 [Compound 36A]" reported_endpoint=IC50 result=30
molecule="NC(=O)/C(=C1\\Nc2ccc(CC(=O)NCCCN3CCOCC3)cc2S1)c1nccc(C(F)(F)F)n1 [Compound 110A]" reported_endpoint=IC50 result=50
molecule="CCN(CCCN1CCOCC1)C(=O)c1ccc2c(c1)S/C(=C(/C(N)=O)c1nccc(C(F)(F)F)n1)N2 [Compound 42A]" reported_endpoint=IC50 result=10
molecule="NC(=O)/C(=C1\\Nc2ccc(-c3ccccn3)cc2N1)c1nccc(C(F)(F)F)n1 [Compound 109A]" reported_endpoint=IC50 result=20
